Attribution: ChEMBL document CHEMBL4406825

- Tested on: K562
- assay_procedure: Antiproliferative activity against human K562 cells assessed as reduction in cell viability incubated for 48 hrs by MTT assay
- Type: functional, cell-based
- cond: K562, 48 h
quantity: IC50 (µM)

>  <chem_smiles>
O=S(=O)(Nc1ccc(O)c2ncccc12)c1ccc(F)cc1

>  <quantity>
IC50

>  <observed>
3.6

$$$$
>  <chem_smiles>
O=C(CCCCCNCc1cc(Cl)c2cccnc2c1O)Nc1ccccc1

>  <quantity>
IC50

>  <observed>
2.3

$$$$
>  <chem_smiles>
O=C(CCNCc1cc(Cl)c2cccnc2c1O)Nc1ccccc1

>  <quantity>
IC50

>  <observed>
1.7

$$$$

[1] COc1ccc(S(=O)(=O)N(CC(=O)NO)CC(C)C)cc1
[2] O=C(CNCc1cc(Cl)c2cccnc2c1O)Nc1ccccc1
[3] Cc1[nH]c2ccccc2c1CCNC(=O)CCCCCNCc1cc(Cl)c2cccnc2c1O
[4] Cc1[nH]c2ccccc2c1CCNC(=O)CCCNCc1cc(Cl)c2cccnc2c1O
Task: Sort ascending by IC50. Answer format: list of labels, ordered as asked.
Result: 4, 2, 3, 1

[a] O=C(CCCCNCc1cc(Cl)c2cccnc2c1O)Nc1ccccc1
[b] O=C(CCCNCc1cc(Cl)c2cccnc2c1O)Nc1ccccc1
Task: Returns: the label, a or b , whose recorded IC50 is the lower number. API: response body contains the label of the selected item.
Result: b
(b: 1.9 µM, a: 2.9 µM)

---

- System: HL-60
- assay_procedure: Antiproliferative activity against human HL60 cells assessed as reduction in cell viability incubated for 48 hrs by MTT assay
- Assay type: functional, cell-based
- cond: HL-60, 48 h
quantity: IC50 (nM)

>  <chem_smiles>
O=C(CCCNCc1cc(Cl)c2cccnc2c1O)Nc1ccccc1

>  <unit_annotation>
nM

>  <observed>
1900

$$$$

[P] Cc1[nH]c2ccccc2c1CCNC(=O)CCCCCNCc1cc(Cl)c2cccnc2c1O
[Q] O=C(CCCCCNCc1cc(Cl)c2cccnc2c1O)Nc1ccccc1
[R] Cc1[nH]c2ccccc2c1CCNC(=O)CCCNCc1cc(Cl)c2cccnc2c1O
[S] COc1ccc(S(=O)(=O)N(CC(=O)NO)CC(C)C)cc1
Task: Sort entries by IC50 from minimum to maximum value. Give the labels in the order specified.
Result: Q, P, R, S
(Q: 1800 nM, P: 2600 nM, R: 4000 nM, S: 29000 nM)

---

- target_entity: Matrix metalloproteinase-9 (Homo sapiens, UniProt P14780)
- Sequence (P14780 whole entry): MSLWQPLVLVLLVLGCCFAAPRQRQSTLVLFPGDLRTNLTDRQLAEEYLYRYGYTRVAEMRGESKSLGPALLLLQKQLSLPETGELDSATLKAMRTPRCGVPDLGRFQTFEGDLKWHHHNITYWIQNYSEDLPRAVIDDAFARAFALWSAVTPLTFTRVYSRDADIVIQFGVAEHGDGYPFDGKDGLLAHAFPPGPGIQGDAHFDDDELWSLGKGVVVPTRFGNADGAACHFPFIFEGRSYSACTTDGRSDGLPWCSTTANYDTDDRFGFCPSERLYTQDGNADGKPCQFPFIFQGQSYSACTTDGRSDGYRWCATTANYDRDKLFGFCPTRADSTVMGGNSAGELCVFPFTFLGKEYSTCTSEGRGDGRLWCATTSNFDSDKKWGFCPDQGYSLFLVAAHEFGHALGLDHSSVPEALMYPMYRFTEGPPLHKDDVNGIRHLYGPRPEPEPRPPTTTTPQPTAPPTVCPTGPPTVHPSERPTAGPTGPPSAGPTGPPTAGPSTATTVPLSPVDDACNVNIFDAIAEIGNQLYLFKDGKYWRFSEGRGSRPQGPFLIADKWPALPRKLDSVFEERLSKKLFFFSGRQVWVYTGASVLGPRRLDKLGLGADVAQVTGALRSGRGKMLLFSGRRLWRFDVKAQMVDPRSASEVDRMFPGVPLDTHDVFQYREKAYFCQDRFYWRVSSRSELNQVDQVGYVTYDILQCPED
- assay_procedure: Inhibition of recombinant human MMP9 at 10 uM using thiopeptide as substrate preincubated for 30 mins followed by substrate addition and measured every min for 20 mins by colorimetric assay relative to control
quantity: inhibition (%)

>  <chem_smiles>
O=C(CCNCc1cc(Cl)c2cccnc2c1O)Nc1ccccc1

>  <quantity>
inhibition

>  <unit_annotation>
%

>  <observed>
98.9

$$$$
>  <chem_smiles>
O=C(CCCCCNCc1ccc(O)c2ncccc12)Nc1ccccc1

>  <quantity>
inhibition

>  <unit_annotation>
%

>  <observed>
55

$$$$
>  <chem_smiles>
Cc1[nH]c2ccccc2c1CCNC(=O)CCNCc1ccc(O)c2ncccc12

>  <quantity>
inhibition

>  <unit_annotation>
%

>  <observed>
11.3

$$$$
>  <chem_smiles>
O=C(CCCNCc1ccc(O)c2ncccc12)Nc1ccccc1

>  <quantity>
inhibition

>  <unit_annotation>
%

>  <observed>
83.9

$$$$
>  <chem_smiles>
CN(CCCCCC(=O)Nc1ccc(O)c2ncccc12)c1ccccc1

>  <quantity>
inhibition

>  <unit_annotation>
%

>  <observed>
35.3

$$$$
>  <chem_smiles>
O=C(CNCc1cc(Cl)c2cccnc2c1O)Nc1ccccc1

>  <quantity>
inhibition

>  <unit_annotation>
%

>  <observed>
78.8

$$$$
>  <chem_smiles>
O=C(CNCc1ccc(O)c2ncccc12)Nc1ccccc1

>  <quantity>
inhibition

>  <unit_annotation>
%

>  <observed>
42.9

$$$$
>  <chem_smiles>
O=C(CCCCNCc1ccc(O)c2ncccc12)Nc1ccccc1

>  <quantity>
inhibition

>  <unit_annotation>
%

>  <observed>
36.5

$$$$
>  <chem_smiles>
O=C(CCCCNCc1cc(Cl)c2cccnc2c1O)Nc1ccccc1

>  <quantity>
inhibition

>  <unit_annotation>
%

>  <observed>
99.9

$$$$
>  <chem_smiles>
O=C(CCCCCNCc1cc(Cl)c2cccnc2c1O)Nc1ccccc1

>  <quantity>
inhibition

>  <unit_annotation>
%

>  <observed>
100

$$$$

[P] Cc1[nH]c2ccccc2c1CCNC(=O)CCCCNCc1cc(Cl)c2cccnc2c1O
[Q] CN(CCCCC(=O)Nc1ccc(O)c2ncccc12)c1ccccc1
[R] Cc1[nH]c2ccccc2c1CCNC(=O)CCCCNCc1ccc(O)c2ncccc12
Task: List by increasing inhibition. Rank the items, then write their labels in that order.
Result: Q, R, P

---

- target_entity: 72 kDa type IV collagenase (Homo sapiens, UniProt P08253)
- assay_procedure: Inhibition of recombinant human MMP2 using thiopeptide as substrate preincubated for 30 mins followed by substrate addition and measured every mins for 20 min by colorimetric assay
- Sequence (P08253 whole entry): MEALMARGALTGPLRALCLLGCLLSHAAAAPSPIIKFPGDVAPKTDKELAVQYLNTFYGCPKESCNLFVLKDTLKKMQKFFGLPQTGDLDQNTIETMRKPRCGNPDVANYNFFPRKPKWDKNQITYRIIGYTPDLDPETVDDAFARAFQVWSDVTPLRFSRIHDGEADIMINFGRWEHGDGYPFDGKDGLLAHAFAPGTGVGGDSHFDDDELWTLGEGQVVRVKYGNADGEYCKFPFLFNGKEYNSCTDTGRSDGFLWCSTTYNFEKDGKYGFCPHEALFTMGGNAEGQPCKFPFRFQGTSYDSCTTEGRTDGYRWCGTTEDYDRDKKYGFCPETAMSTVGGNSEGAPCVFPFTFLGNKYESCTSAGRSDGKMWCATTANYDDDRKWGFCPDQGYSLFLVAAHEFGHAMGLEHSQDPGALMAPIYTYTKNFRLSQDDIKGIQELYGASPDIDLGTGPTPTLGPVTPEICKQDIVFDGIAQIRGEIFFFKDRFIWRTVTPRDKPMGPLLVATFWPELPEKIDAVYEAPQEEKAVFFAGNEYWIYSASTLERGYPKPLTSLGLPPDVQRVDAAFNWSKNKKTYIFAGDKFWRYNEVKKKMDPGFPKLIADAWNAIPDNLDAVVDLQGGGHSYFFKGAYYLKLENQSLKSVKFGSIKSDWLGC
quantity: IC50 (µM)

Solved entries:
>  <chem_smiles>
Cc1[nH]c2ccccc2c1CCNC(=O)CCCNCc1cc(Cl)c2cccnc2c1O

>  <unit_annotation>
µM

>  <IC50>
0.81

$$$$
>  <chem_smiles>
O=C(CCCCNCc1cc(Cl)c2cccnc2c1O)Nc1ccccc1

>  <unit_annotation>
µM

>  <IC50>
3

$$$$
>  <chem_smiles>
CN(CCCCCC(=O)Nc1ccc(O)c2ncccc12)c1ccccc1

>  <unit_annotation>
µM

>  <IC50>
6.2

$$$$
>  <chem_smiles>
Cc1[nH]c2ccccc2c1CCNC(=O)CCCCNCc1cc(Cl)c2cccnc2c1O

>  <unit_annotation>
µM

>  <IC50>
7.6

$$$$
>  <chem_smiles>
O=C(CCCCCNCc1ccc(O)c2ncccc12)Nc1ccccc1

>  <unit_annotation>
µM

>  <IC50>
8.8

$$$$

[P] O=S(=O)(Nc1ccc(O)c2ncccc12)c1ccc(F)cc1
[Q] O=C(CNCc1cc(Cl)c2cccnc2c1O)Nc1ccccc1
[R] O=C(CCCCCNCc1cc(Cl)c2cccnc2c1O)Nc1ccccc1
Task: # rank_down: sort by IC50, max first Sort and list the labels as requested.
Result: P, Q, R
(P: 8.8 µM, Q: 3.2 µM, R: 0.7 µM)

---

- target_entity: 72 kDa type IV collagenase (Homo sapiens)
- assay_procedure: Inhibition of recombinant human MMP2 at 10 uM using thiopeptide as substrate preincubated for 30 mins followed by substrate addition and measured every min for 20 mins by colorimetric assay relative to control
- Sequence (P08253 110-660 limits assumed): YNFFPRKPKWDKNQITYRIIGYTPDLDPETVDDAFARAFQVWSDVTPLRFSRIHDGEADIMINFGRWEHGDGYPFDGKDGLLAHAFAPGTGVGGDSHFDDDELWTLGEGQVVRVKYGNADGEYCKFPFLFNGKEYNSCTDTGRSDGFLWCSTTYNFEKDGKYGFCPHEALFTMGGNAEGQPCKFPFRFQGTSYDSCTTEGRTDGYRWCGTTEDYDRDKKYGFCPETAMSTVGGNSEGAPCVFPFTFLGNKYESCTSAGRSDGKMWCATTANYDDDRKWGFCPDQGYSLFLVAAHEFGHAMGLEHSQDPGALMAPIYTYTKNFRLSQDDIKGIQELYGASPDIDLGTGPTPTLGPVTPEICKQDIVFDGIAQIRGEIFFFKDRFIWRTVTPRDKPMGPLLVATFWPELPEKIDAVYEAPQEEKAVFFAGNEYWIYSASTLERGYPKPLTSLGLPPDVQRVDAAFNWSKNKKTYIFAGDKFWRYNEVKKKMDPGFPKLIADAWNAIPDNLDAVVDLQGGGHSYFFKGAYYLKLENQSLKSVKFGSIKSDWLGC
quantity: inhibition (%)

Example results:
>  <chem_smiles>
CN(CCCCCC(=O)Nc1ccc(O)c2ncccc12)c1ccccc1

>  <observed>
59.5

$$$$
>  <chem_smiles>
O=C(CCCN1C(=O)c2ccccc2S1(=O)=O)Nc1ccc(O)c2ncccc12

>  <observed>
50.1

$$$$
>  <chem_smiles>
O=C(CCCCCCNCc1ccc(O)c2ncccc12)Nc1ccccc1

>  <observed>
53.8

$$$$
>  <chem_smiles>
O=C(CNCc1cc(Cl)c2cccnc2c1O)Nc1ccccc1

>  <observed>
95.8

$$$$
>  <chem_smiles>
Cc1[nH]c2ccccc2c1CCNC(=O)CCCCCNCc1cc(Cl)c2cccnc2c1O

>  <observed>
100

$$$$

[a] Cc1[nH]c2ccccc2c1CCNC(=O)CNCc1cc(Cl)c2cccnc2c1O
[b] O=C(CCCNCc1cc(Cl)c2cccnc2c1O)Nc1ccccc1
Task: Problem: Given the entries a and b , determine which has the lower reported inhibition. To answer, give the label that identifies your chosen option.
Result: a
(a: 59.5%, b: 100%)

[P] Cc1[nH]c2ccccc2c1CCNC(=O)CCCCNCc1cc(Cl)c2cccnc2c1O
[Q] Cc1nc2ccccc2n1CCCC(=O)Nc1ccc(O)c2ncccc12
[R] O=C(CCCCCNCc1cc(Cl)c2cccnc2c1O)Nc1ccccc1
Task: // ascending sort on recorded inhibition List each label, following the requested order.
Result: Q, P, R
(Q: 46.9%, P: 67.8%, R: 100%)

[I] CN(CCCCC(=O)Nc1ccc(O)c2ncccc12)c1ccccc1
[II] Cc1nc2ccccc2n1CCCCCC(=O)Nc1ccc(O)c2ncccc12
[III] O=C(CCNCc1cc(Cl)c2cccnc2c1O)Nc1ccccc1
Task: Ordering criterion: inhibition; begin with the maximum. Could you list the labels in the order requested?
Result: III, I, II
(III: 100%, I: 57.5%, II: 38.9%)

[1] Cc1[nH]c2ccccc2c1CCNC(=O)CCCCNCc1ccc(O)c2ncccc12
[2] O=C(CCCCNCc1cc(Cl)c2cccnc2c1O)Nc1ccccc1
Task: Select one: 1 or 2 . Criterion: greater recorded inhibition. # respond with the chosen item's label
Result: 2

---

- target_entity: Matrix metalloproteinase-9 (Homo sapiens, UniProt P14780)
- assay_procedure: Inhibition of recombinant human MMP9 at 10 uM using thiopeptide as substrate preincubated for 30 mins followed by substrate addition and measured every min for 20 mins by colorimetric assay relative to control
quantity: inhibition (%)

>  <chem_smiles>
Cc1[nH]c2ccccc2c1CCNC(=O)CCNCc1cc(Cl)c2cccnc2c1O

>  <observed>
73.9

$$$$
>  <chem_smiles>
Cc1[nH]c2ccccc2c1CCNC(=O)CCCCCNCc1cc(Cl)c2cccnc2c1O

>  <observed>
77.1

$$$$
>  <chem_smiles>
O=C(CCCNCc1cc(Cl)c2cccnc2c1O)Nc1ccccc1

>  <observed>
100

$$$$
